# System: Wnt activity (Sp5-Luc reporter, SW480 colon carcinoma cells)
# assay_details: Screening assay for Wnt activity: Sp5-Luc reporter gene assay in SW480 colon carcinoma cells
# Type: cell-based
# measurement_context: Homo sapiens; Sp5-Luc reporter, SW480 cells, overnight incubation
pEC50: −log10 of the molar value.

| compound | limit_qualifier | pEC50 |
| --- | --- | --- |
| CCCCC(=O)Nc1cncc(-c2cc3c(-c4cc5cnccc5[nH]4)n[nH]c3cn2)c1 [Compound 271] | = | 5.41 |
| Fc1ccccc1-c1nccc2[nH]c(-c3n[nH]c4cnc(-c5cncc(CN6CCCC6)c5)cc34)cc12 [Compound 70] | = | 5.70 |
| Fc1ccccc1-c1nccc2[nH]c(-c3n[nH]c4cnc(-c5cn[nH]c5)cc34)cc12 [Compound 539] | = | 7.52 |
| CC(C)(C)CC(=O)Nc1cncc(-c2cc3c(-c4cc5c(-c6cc(F)cc(CNS(C)(=O)=O)c6)nccc5[nH]4)n[nH]c3cn2)c1 [Compound 492] | < | 5.00 |
| CC(C)Nc1cncc(-c2cc3c(-c4cc5c(N6CCCCC6)nccc5[nH]4)n[nH]c3cn2)c1 [Compound 180] | = | 5.61 |
| CN1CCN(c2nccc3[nH]c(-c4n[nH]c5cnc(-c6cncc(N)c6)cc45)cc23)CC1 [Compound 227] | < | 5.00 |
| CCNCc1cncc(-c2cc3c(-c4cc5c(N6CCCCC6)nccc5[nH]4)n[nH]c3cn2)c1 [Compound 174] | = | 5.56 |
